Test system: biotinyl-Trp-oxazolone
Assay: self-aminoacylation, catalytic enhancement (BWO) (fold over background); higher = more active; k-Seq, kA / k0A0; sequences stand for … in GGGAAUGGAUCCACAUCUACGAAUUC…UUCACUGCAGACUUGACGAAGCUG
This sample holds only a part of the variants without activity.
measured.endpoint: self-aminoacylation
Form rule: numeric answer, no unit written next to it.

Some solved cases for reference:
[
  {
    "biosequence": "AAGUUUUCUAAUCGUCGCAAG [Fam3.1 aminoacylation ribozyme variant]",
    "measured.endpoint": "self-aminoacylation",
    "measured.value": 1.65
  },
  {
    "biosequence": "AUUACCCUGGUCAUCAAGUGA [Fam2.1 aminoacylation ribozyme variant]",
    "measured.endpoint": "self-aminoacylation",
    "measured.value": 2.87
  },
  {
    "biosequence": "AAGUUUUAUAAUAGUCGCAAG [Fam3.1 aminoacylation ribozyme variant]",
    "measured.endpoint": "self-aminoacylation",
    "measured.value": 1.99
  }
]

// self-aminoacylation value for AUUCACCGAGGUUAUCGGGUG [Fam2.2 aminoacylation ribozyme variant] : 7.66

// self-aminoacylation value for CGACACCUCAAGCAAUCGGUC [Fam1B.1 aminoacylation ribozyme variant] : 1.17

###

Below, each entry is listed alongside its reported self-aminoacylation.
Tested on: biotinyl-Val-oxazolone
Experiment: self-aminoacylation, catalytic enhancement (BVO) (fold over background); higher = more active; k-Seq, kA / k0A0; sequences stand for … in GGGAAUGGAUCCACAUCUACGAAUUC…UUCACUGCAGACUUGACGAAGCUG
This sample holds only a part of the variants without activity.
Form rule: numeric answer, no unit written next to it.

[
  {
    "biosequence": "AUUACCCUGCUCAUCGAGUGG [Fam2.1 aminoacylation ribozyme variant]",
    "system.under.test": "biotinyl-Val-oxazolone",
    "self-aminoacylation": 0.81
  },
  {
    "biosequence": "CUGCUUCAAACAAUCGGUCUG [Fam1A.1 aminoacylation ribozyme variant]",
    "system.under.test": "biotinyl-Val-oxazolone",
    "self-aminoacylation": 1.35
  },
  {
    "biosequence": "AUUACCCUGGUAAACGAGUGA [Fam2.1 aminoacylation ribozyme variant]",
    "system.under.test": "biotinyl-Val-oxazolone",
    "self-aminoacylation": 7.77
  }
]

// self-aminoacylation value for AUUCACCUACGUCAUCGCGUG [Fam2.2 aminoacylation ribozyme variant] : 5.93

// self-aminoacylation value for AUUACCCUGGUCUACGAGUGA [Fam2.1 aminoacylation ribozyme variant] : 3.68

// self-aminoacylation value for CCACACCUCAAGGAAUCGGUC [Fam1B.1 aminoacylation ribozyme variant] : 1.26

// self-aminoacylation value for CUACUUCAACCAAUCGGGCUG [Fam1A.1 aminoacylation ribozyme variant] : 1.22

###

System: biotinyl-Ile-oxazolone
Experiment: self-aminoacylation, catalytic enhancement (BIO) (fold over background); higher = more active; k-Seq, kA / k0A0; sequences stand for … in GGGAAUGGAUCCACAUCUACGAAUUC…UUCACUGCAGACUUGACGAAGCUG
Variants at the floor of the assay were thinned out.
measured.endpoint: self-aminoacylation
Form rule: numeric answer, no unit written next to it.

Some solved cases for reference:
[
  {
    "biosequence": "UUACUUCAAACAAUCGGUCUG [Fam1A.1 aminoacylation ribozyme variant]",
    "self-aminoacylation": 1.3
  },
  {
    "biosequence": "AUUAACGUAGGUCAUCGGGUG [Fam2.2 aminoacylation ribozyme variant]",
    "self-aminoacylation": 2.52
  },
  {
    "biosequence": "CUACUUCCAACAAUGGGUCUG [Fam1A.1 aminoacylation ribozyme variant]",
    "self-aminoacylation": 0.951
  }
]

The sequence AAGUUUGCUAAUAAUCGCAAA [Fam3.1 aminoacylation ribozyme variant] on biotinyl-Ile-oxazolone: self-aminoacylation was 1.2

###

Tested on: biotinyl-Trp-oxazolone
Test: self-aminoacylation, catalytic enhancement (BWO) (fold over background); higher = more active; k-Seq, kA / k0A0; sequences stand for … in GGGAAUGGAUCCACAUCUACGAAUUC…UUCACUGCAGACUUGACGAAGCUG
Fewer inactive variants are shown than the library holds.
measured.endpoint: self-aminoacylation
Form rule: numeric answer, no unit written next to it.

Some solved cases for reference:
[
  {
    "biosequence": "AUUAACCUUGGUCAUCGGGUG [Fam2.2 aminoacylation ribozyme variant]",
    "self-aminoacylation": 7.04
  },
  {
    "biosequence": "CUACUACAAACAAUCGUUCUG [Fam1A.1 aminoacylation ribozyme variant]",
    "self-aminoacylation": 0.338
  },
  {
    "biosequence": "CCACACUUCAAGCAAUCCAUC [Fam1B.1 aminoacylation ribozyme variant]",
    "self-aminoacylation": 0.529
  }
]

Then this sequence:
// self-aminoacylation value for AAGUACGCUAAUAGUCGCAAG [Fam3.1 aminoacylation ribozyme variant] : 3.1

###

System: biotinyl-Ile-oxazolone
Assay: self-aminoacylation, catalytic enhancement (BIO) (fold over background); higher = more active; k-Seq, kA / k0A0; sequences stand for … in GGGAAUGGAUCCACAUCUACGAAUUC…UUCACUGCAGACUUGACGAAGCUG
Fewer inactive variants are shown than the library holds.
measured.endpoint: self-aminoacylation
Form rule: numeric answer, no unit written next to it.

Some solved cases for reference:
[
  {
    "biosequence": "AUUCUCCUAGCUCAUCGGGUG [Fam2.2 aminoacylation ribozyme variant]",
    "self-aminoacylation": 3.32
  },
  {
    "biosequence": "GUUAACCUGGUCAUCGAGUGA [Fam2.1 aminoacylation ribozyme variant]",
    "self-aminoacylation": 4.69
  },
  {
    "biosequence": "AUUACACUGAUCAUCGAGUGA [Fam2.1 aminoacylation ribozyme variant]",
    "self-aminoacylation": 3.19
  },
  {
    "biosequence": "CUACUCCAACCAAUCGGUCUG [Fam1A.1 aminoacylation ribozyme variant]",
    "self-aminoacylation": 0.623
  }
]

// self-aminoacylation value for CUACUUCAACCAAUCGGUCUU [Fam1A.1 aminoacylation ribozyme variant] : 1.02

// self-aminoacylation value for AUUACCCUGAUCAUCGAGUGA [Fam2.1 aminoacylation ribozyme variant] : 3.8

// self-aminoacylation value for CUACUUCUAACAGUCGGUCUG [Fam1A.1 aminoacylation ribozyme variant] : 0.521

// self-aminoacylation value for CUCCUUCAAACAAUCGCUCUG [Fam1A.1 aminoacylation ribozyme variant] : 0.73

###

Test system: biotinyl-Leu-oxazolone
Assay: self-aminoacylation, catalytic enhancement (BLO) (fold over background); higher = more active; k-Seq, kA / k0A0; sequences stand for … in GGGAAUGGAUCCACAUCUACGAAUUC…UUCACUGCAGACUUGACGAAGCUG
Fewer inactive variants are shown than the library holds.
Below, each entry is listed alongside its reported self-aminoacylation.
Form rule: numeric answer, no unit written next to it.

[
  {
    "biosequence": "AUUCACAUAGGUCAUCGGGUA [Fam2.2 aminoacylation ribozyme variant]",
    "measured.value": 2.54
  },
  {
    "biosequence": "AUUCACCUGGGUCAUCAGGUG [Fam2.2 aminoacylation ribozyme variant]",
    "measured.value": 1.67
  },
  {
    "biosequence": "AUACUUCAAACCAUCGGUCUG [Fam1A.1 aminoacylation ribozyme variant]",
    "measured.value": 0.902
  }
]

Then this sequence:
// self-aminoacylation value for CUAGUUCUAACAAUCGGUCUG [Fam1A.1 aminoacylation ribozyme variant] : 0.849

###

Below, each entry is listed alongside its reported self-aminoacylation.
Test system: biotinyl-Trp-oxazolone
Assay: self-aminoacylation, catalytic enhancement (BWO) (fold over background); higher = more active; k-Seq, kA / k0A0; sequences stand for … in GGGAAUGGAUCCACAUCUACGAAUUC…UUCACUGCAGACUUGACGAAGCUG
Fewer inactive variants are shown than the library holds.

Some solved cases for reference:
[
  {
    "biosequence": "CCACACGUCAAGCAAUAGGUC [Fam1B.1 aminoacylation ribozyme variant]",
    "self-aminoacylation": 0.587
  },
  {
    "biosequence": "AUUCAUCUAGGUCAACGGGUG [Fam2.2 aminoacylation ribozyme variant]",
    "self-aminoacylation": 3.23
  },
  {
    "biosequence": "AUUCACCUAUGUCAUCGGGUU [Fam2.2 aminoacylation ribozyme variant]",
    "self-aminoacylation": 1.75
  }
]

// self-aminoacylation value for AAGUUGGCUAAUAGCCGCAAG [Fam3.1 aminoacylation ribozyme variant] : 2.85

// self-aminoacylation value for CCACACUUAAAGCACUCGGUC [Fam1B.1 aminoacylation ribozyme variant] : 0.732

// self-aminoacylation value for AUUCAGCUAGGUCAUCGGGUG [Fam2.2 aminoacylation ribozyme variant] : 5.34

// self-aminoacylation value for AUUACCCUCGUCAGCGAGUGA [Fam2.1 aminoacylation ribozyme variant] : 4.57

// self-aminoacylation value for CCAGACUUCAAGUAAUCGGUC [Fam1B.1 aminoacylation ribozyme variant] : 8.35

// self-aminoacylation value for AUUCACCUAGGUCUUCGGGUA [Fam2.2 aminoacylation ribozyme variant] : 3.79
